target: human somatostatin receptor subtype SSTR2 (human) (UniProt P30874); assay: FACS, transfected HEK-293 cells; normalised to Compound 1
Sequence (P30874 whole entry): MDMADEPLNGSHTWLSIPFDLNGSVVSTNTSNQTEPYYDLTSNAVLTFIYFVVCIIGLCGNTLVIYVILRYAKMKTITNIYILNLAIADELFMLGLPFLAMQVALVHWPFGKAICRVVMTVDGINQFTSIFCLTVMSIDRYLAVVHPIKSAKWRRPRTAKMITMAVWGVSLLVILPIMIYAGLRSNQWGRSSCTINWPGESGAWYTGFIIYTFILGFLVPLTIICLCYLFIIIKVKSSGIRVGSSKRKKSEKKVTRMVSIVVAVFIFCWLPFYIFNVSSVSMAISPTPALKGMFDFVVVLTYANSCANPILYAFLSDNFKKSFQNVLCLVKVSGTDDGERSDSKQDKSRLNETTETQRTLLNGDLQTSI
*1 amine or outer side, *2 acyl side, *3 side chain or, on linkers, in order; H or OH if unused. Bridges are numbered along the chain shown (N, C = ends). Primed or numbered codes have the meaning given here. [ ]: non-standard residue; d: D form. N(2-mercaptoethyl)Gly = O=C(CN(CCS[*:3])[*:1])[*:2]; FITC′ = fluorescein isothiocyanate; Orn = NCCC[C@H](N)C(=O)O; Aib = CC(C)(N)C(=O)O; GABA = NCCCC(=O)O
readout-kind: Binding affinity relative to Compound 1 (% of Compound 1)
Reply with the value as a number alone.

Asked: Look at this binder and give its reported Binding affinity relative to Compound 1 (% of Compound 1). XCFWXXTFX (FITC-GABA-DPhe-Cys*-Phe-Trp-DTrp-Orn-Thr-Phe-GlyS2*-NH2 (* = S-S bond; GlyS2 = N-thioethyl glycine; Orn = ornithine; C-terminal amide)) [Compound 3]
Given back: 66

Asked: # repeat for {FITC′-GABA}-[dF]RCF[dW]KTF[N(2-mercaptoethyl)Gly]-NH2 (disulfide 3-9) [Compound 2]
Given back: 77

Asked: # repeat for {FITC′-GABA}-[dF]RCF[dW][Orn]TF[N(2-mercaptoethyl)Gly]-NH2 (disulfide 3-9) [Compound 5]
Given back: 15

Asked: # repeat for {FITC′-GABA}-[dF]CFW[dW][Aib]TF[N(2-mercaptoethyl)Gly]-NH2 (disulfide 2-9) [Compound 13]
Given back: 0

Asked: # repeat for {FITC′-GABA}-[dF]CYW[dW]KTF[N(2-mercaptoethyl)Gly]-NH2 (disulfide 2-9) [Compound 4]
Given back: 123

Asked: # repeat for XCFWXXTFX (FITC-GABA-DPhe-Cys*-Phe-Trp-DTrp-HomoLys-Thr-Phe-GlyS2*-NH2 (* = S-S bond; HomoLys = homolysine; GlyS2 = N-thioethyl glycine; C-terminal amide)) [Compound 16]
Given back: 38

These entries and their values trace back to patent US20170298113A1.
